Catalogue of sequences with associated apparent KD of K4 kissing-loop reporter
test system: K4 kissing-loop RNA reporter; assay: apparent KD of K4 kissing-loop reporter; higher = weaker reporter binding; details: Eterna round: R107; input ligand: theophylline 20 uM;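 further: bound reporter read as fluorescence of individual clusters on recovered sequencing chips by microscopy, with normalized cluster intensities fitted with a binding model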

construct-sequence	target-system	apparent KD of K4 kissing-loop reporter
UGAUACCAGACGGCCGCCACUCCUAGUGAUGUUAGGAACCUAAAAUAGCAUGUCAAAGACAUGCGGAGGACCGGGUCUGGUAUCU [TrypBX 23 #SwitchBubble #Palindromic #StaticStem]	K4 kissing-loop RNA reporter	90.3 nM
AAAUAAAUCACGGCCGCCACUGCUAGAGUGAUGUUCUAUUAAUAAUUUCUAAAUUAUAUAAUACUCAGGACCGGGUGAUUUUUAA [JR_SSTryptoB_Sub020]	K4 kissing-loop RNA reporter	426 nM

Note: attention shifts to another entry.
Item UUUUUGGUUUAGAGUGAUGUUCCUUGUUUUCGAGGACCGGUACGGCCGCCACUCGAAAAGAAAAGAAAAGAAAAGAGUGAUGUUU [BDazzled - #1 SS Tryptophan A] has what recorded apparent KD of K4 kissing-loop reporter?
311 nM
